Measured values drawn from PubChem BioAssay (NCI) for this set.

System: BT-549 breast
protocol-description: NCI tumour cell line growth inhibition, 48 h; in the data active = GI50 below about 0.43 µM; inactive = the rest
Pick one: active, inactive

Take a look at these entries with their results.
COC(=O)[C@]12CC[C@@H](C)[C@H](C)[C@@H]1C1=CC[C@@H]3[C@@]4(C)C=C(O)C(=O)C(C)=C4CC[C@@]3(C)[C@]1(C)CC2    inactive
C=C1CO[C@@H]2C[C@@H]1CCC1(C)OC1CC/C(C)=C/CC[C@@]2(C)O (stereo partly drawn)    inactive
COc1ccc(C(=O)N/N=C/c2ccc(O)cc2O)cc1Nc1ccnc(C(F)(F)F)c1    inactive
Oc1ccc(-c2nc3ccc4[nH]ncc4c3c3c2CCCC3)c2cccnc12    active
CN1CCN(c2cc(Nc3cc(C4CC4)[nH]n3)nc(Nc3ccc(CC(=O)NCc4cccc(F)c4)cc3)n2)CC1    inactive
C=C1C(=O)O[C@H]2[C@H]1CC(=O)/C(C)=C\CC[C@@]1(C)O[C@@H]21    inactive

Look up the recorded call for `COc1cc(/C=C/C(=O)c2cc(OC)c(OC)c(OC)c2)cc(OC)c1OC` in this test. inactive

Hello, I am checking results. What call was entered for COC1CCC(n2c([C@@H]3CCCC(=O)N3c3ccc(F)c(F)c3)nc3cc(-c4c(C)noc4C)ccc32)CC1 (stereo partly drawn) ? inactive

* * *

Tested on: HCT-116 colon
protocol-description: NCI tumour cell line growth inhibition, 48 h; in the data active = GI50 below about 0.43 µM; inactive = the rest
Respond using exactly one of the listed classes: Yes = active, No = inactive

Below are worked cases with known answers.
CCCCc1nc2cc(/C=C/C(=O)NO)ccc2n1CCN(CC)CC    Yes
C=C(C(=O)OC)[C@@H]1C[C@@H](O)[C@]2(C)CC/C=C(\C)CCC[C@H](C)[C@H](O)C1O2    No
CCCCC#Cc1cccc(=O)o1    No
COc1cc2c3c(n(C)c(=O)c2cc1OC)-c1cc2c(cc1/C3=C\[C@@H](N)CCCCN)OCO2    Yes
CCC(C)CC(CC)NCCN1CCN(C(CC)CC(C)CC)C1=S (stereo unspecified)    No
COc1ccc(-c2[nH]ncc2-c2cc(OC)c(OC)c(OC)c2)cc1    Yes
Cc1[nH]nc(C(=O)Nc2n[nH]c3ccccc23)c1[N+](=O)[O-]    No
COC(=O)c1cc2c(cc1Cl)SC(N(N(C)C)S(=O)(=O)c1ccc(Cl)cc1)=NS2(=O)=O    No
CN1CCN(c2cc(Nc3cc(C4CC4)[nH]n3)nc(Nc3ccc(CC(=O)NCc4cccc(F)c4)cc3)n2)CC1    Yes
C=C1CO[C@@H]2C[C@@H]1CCC1(C)OC1CC/C(C)=C/CC[C@@]2(C)O (stereo partly specified)    No

I'd appreciate the recorded outcome for C[C@@]12CCC[C@@](C)(C(=O)O)C1CC[C@@]13CC(=O)[C@@](CO)(CCC12)C3 (stereo partly specified) from this test. No

* * *

System: SK-MEL-28 melanoma
protocol-description: NCI tumour cell line growth inhibition, 48 h
observed-property: GI50

Known GI50 results, listed for orientation:
Clc1ccc(-c2cn(-c3ccccc3)c(-c3ccccc3)n2)c(Cl)c1    4.86 µM
Nc1c(O)c(S(=O)(=O)O)c(O)c2c1C(=O)c1ccccc1C2=O    4.09 µM

Quick batch: GI50 for everything below.
1. CN(C)CCCC(=O)Nc1ccc(Cn2nnc3c2C(=O)c2nnn(Cc4ccc(NC(=O)CCCN(C)C)cc4)c2C3=O)cc1
2. NCC(=O)CCC(=O)O
3. COc1cccc2c(Nc3ccc(C(=O)NCCN(C)C)cc3)cc(-c3ccccc3)nc12
4. CC(C)[C@@H](CS(=O)(=O)C(C)C)N1C(=O)[C@@](C)(CC(=O)O)C[C@H](c2cccc(Cl)c2)[C@H]1c1ccc(Cl)cc1
5. COc1ccc(-c2nn(-c3cccc(NC(=O)Nc4cccc(C(F)(F)F)c4)c3)cc2-c2ccncc2)cc1Cl
6. CN1CCN(c2cc(Nc3cc(C4CC4)[nH]n3)nc(Nc3ccc(CC(=O)NCc4cccc(F)c4)cc3)n2)CC1

1: 4.55 µM; 2: > 100 µM; 3: 37.1 µM; 4: 15.5 µM; 5: 2.57 µM; 6: 0.971 µM
